The values you see were collected from paper PMC7587356.

Molecular target: SARS-CoV-2 3CLpro (Severe acute respiratory syndrome coronavirus 2, UniProt P0DTD1)
Assay: biochemical
Assay type: biochemical
Parameters: unit not given here
Settings: sheet LOPAC_screen_w_protease; primary screen with protease, compound at 5 µM; replicate 1
Record form. Attribute: Replicate_1. Fill in for each entry.

N#CC(=C(/N)Sc1ccccc1N)/C(C#N)=C(/N)Sc1ccccc1N: 2.394
CC(=N)NCCC[C@H](N)C(=O)O.Cl: 2.586

Each compound below has a recorded value; state its Replicate_1.
1. N.N.O=C([O-])C1(C(=O)[O-])CCC1.[Pt+2]
2. CC(C)[C@@]1(NC(=O)[C@@H]2C[C@@H]3c4cccc5[nH]cc(c45)C[C@H]3N(C)C2)O[C@@]2(O)[C@@H]3CCCN3C(=O)[C@H](Cc3ccccc3)N2C1=O.CS(=O)(=O)O [Dihydroergocristine methanesulfonate]
3. NC(=O)c1cc[n+](CC2=C(C(=O)[O-])N3C(=O)[C@@H](NC(=O)C(c4ccccc4)S(=O)(=O)[O-])[C@H]3SC2)cc1.O.[Na+] (stereo partly shown) [Cefsulodin sodium salt hydrate]
4. COc1c2c(nc3ccccc13)OC(C(C)(O)CO)C2 (stereo not shown)
5. COc1ccccc1N1CCN(CCN(C(=O)c2ccc(I)cc2)c2ccccn2)CC1.Cl [p-MPPI hydrochloride]

A.
1: 1.772; 2: 2.962; 3: 2.052; 4: 4.833; 5: 5.19

----------
Target: SARS-CoV-2 3CLpro (Severe acute respiratory syndrome coronavirus 2, UniProt P0DTD1)
Test: biochemical
Type: biochemical
Set-up: unit not given here
Settings: sheet LOPAC_screen_w_protease; LOPAC1280 at 5 µM; mean of two replicates
Record form. Attribute: mean. Fill in for each entry.
Answers are plain numbers.

Observe how each entry below is paired with its result.
COc1cc(C(O)C(=O)O)ccc1O (racemic) [(±)-Vanillylmandelic acid]: 1.1
O=C1CCC(N2C(=O)c3ccccc3C2=O)C(=O)N1 (racemic) [(±)-Thalidomide]: 1.21
CC(C)(CO)Cc1cc(C(C)(C)C)c(O)c(C(C)(C)C)c1 [CGP-7930]: 1.164
CN(C)C(N)=NCCC[C@H](N)C(=O)O.Cl [N^G,N^G-Dimethylarginine hydrochloride]: 0.9307

Each molecule below has a recorded value; state its mean.
1. Nn1nnc2ccccc21 [1-Aminobenzotriazole]
2. CCCc1c(-c2ccc(O)cc2)nn(-c2ccc(O)cc2)c1-c1ccc(O)cc1
3. CC(C)(C)NCC(O)COc1cccc2[nH]c(=O)[nH]c12.Cl (racemic) [(±)-CGP-12177A hydrochloride]
4. CC(N)(Cc1ccc(O)cc1)C(=O)O (racemic) [DL-alpha-Methyl-p-tyrosine]

A.
1.253
1.246
1.308
1.1698

----------
Target: SARS-CoV-2 3CLpro (Severe acute respiratory syndrome coronavirus 2, UniProt P0DTD1)
Experiment: biochemical
Type: biochemical
// NB: equality with 2 counts as not met; only Ratio (A/B) strictly below is met

O=C1O/C(=C/Br)CCC1c1cccc2ccccc12 (stereo not drawn) [Bromoenol lactone, reference compound]: met
O=c1cc(O)cc(/C=C/c2ccc(O)c(O)c2)o1 [Hispidin, reference compound]: not met
Oc1cc(O)cc(/C=C/c2ccc(O)c(O)c2)c1 [Piceatannol, reference compound]: met
CN(N=O)c1ccc(O)c(O)c1 [Me-3,4-dephostatin, reference compound]: not met
O=C(N[C@@H](Cc1ccccc1)C(=O)CCl)OCc1ccccc1: met

Q. Record CN(N=O)c1cc(O)ccc1O [Dephostatin, reference compound] : is its Ratio (A/B) strictly below 2?
A. not met

Q. Record `O=C(O)Cc1ccc(O)c(O)c1` : is its Ratio (A/B) strictly below 2?
A. met

Q. Record `CC(C)N(CCC(=O)c1ccc2ccccc2c1)Cc1ccccc1` : is its Ratio (A/B) strictly below 2?
A. met

Q. Record Br.Oc1ccc(C2CNCc3sccc32)cc1O (stereo not drawn) [SKF 89626, reference compound] : is its Ratio (A/B) strictly below 2?
A. met
